src = ChEMBL document CHEMBL1255250

system: Escherichia coli; assay: Microbicidal activity against Escherichia coli ML35 in presence of 1.2 mM Calcium ions; format: functional, organism-based
The source made the active and inactive calls. No cut-off for these calls is given here. Where a SMILES comes first, the peptide text is derived from it. Bridges are numbered along the chain shown (N, C = ends).
result_type: Activity

>>> result("CC[C@H](C)[C@@H]1NC(=O)C2CSSCC(NC(=O)[C@H](CCCNC(=N)N)NC(=O)[C@@H]3CSSC[C@H](NC1=O)C(=O)N[C@@H]([C@@H](C)O)C(=O)N[C@@H](CCCNC(=N)N)C(=O)NCC(=O)N[C@@H](Cc1ccccc1)C(=O)N3)C(=O)N[C@@H]([C@@H](C)CC)C(=O)N[C@H]1CSSC[C@H](NC(=O)[C@H](Cc3ccccc3)NC(=O)CNC(=O)[C@H](CCCNC(=N)N)NC(=O)[C@H]([C@@H](C)O)NC1=O)C(=O)N[C@@H](CCCNC(=N)N)C(=O)N2 (single isomer, unassigned)")
"Active"
>>> result("CC(C)C[C@@H]1NC(=O)[C@@H]2CSSC[C@H](NC(=O)[C@H](CCCNC(=N)N)NC(=O)[C@@H]3CSSC[C@H](NC1=O)C(=O)N[C@@H](CCCNC(=N)N)C(=O)N[C@@H](CCCNC(=N)N)C(=O)NCC(=O)N[C@@H](C(C)C)C(=O)N3)C(=O)N[C@@H](CC(C)C)C(=O)N[C@H]1CSSC[C@H](NC(=O)[C@H](C(C)C)NC(=O)CNC(=O)[C@H](CCCNC(=N)N)NC(=O)[C@H](CCCNC(=N)N)NC1=O)C(=O)N[C@@H](CCCNC(=N)N)C(=O)N2 (cyclo(CLCRRGVCRCLCRRGVCR); disulfide 1-10, 3-8, 12-17)")
"Active"
>>> result("CC[C@H](C)[C@@H]1NC(=O)[C@@H]2CSSC[C@H](NC(=O)[C@H](CCCNC(=N)N)NC(=O)[C@@H]3CSSC[C@H](NC1=O)C(=O)N[C@@H]([C@H](C)O)C(=O)N[C@@H](CCCNC(=N)N)C(=O)NCC(=O)N[C@H](Cc1ccccc1)C(=O)N3)C(=O)N[C@@H](CC(C)C)C(=O)N[C@@H]1CSSC[C@@H](NC(=O)[C@H](C(C)C)NC(=O)CNC(=O)[C@H](CCCNC(=N)N)NC(=O)[C@H](CCCNC(=N)N)NC1=O)C(=O)N[C@@H](CCCNC(=N)N)C(=O)N2")
"Active"

###

test system: Candida albicans; test: Microbicidal activity against Candida albicans 16820 assessed as log reduction in microbial count at 10 ug/ml using PIPES buffer
Where a SMILES comes first, the peptide text is derived from it. Bridges are numbered along the chain shown (N, C = ends).
result_type: FC

>>> result("CC(C)C[C@H](NC(=O)[C@H](CCCNC(=N)N)NC(=O)CNC(=O)CNC(=O)[C@@H](N)CCCNC(=N)N)C(=O)N[C@H]1CSSC[C@@H](C(=O)N[C@H](C(=O)NCC(=O)N[C@@H](CCCNC(=N)N)C(N)=O)C(C)C)NC(=O)[C@H](C(C)C)NC(=O)[C@@H]2CSSC[C@H](NC(=O)[C@H](Cc3ccc(O)cc3)NC1=O)C(=O)N[C@@H](CCCNC(=N)N)C(=O)N[C@@H](CCCNC(=N)N)C(=O)N[C@@H](CCCNC(=N)N)C(=O)N[C@@H](Cc1ccccc1)C(=O)N2")
">3"
>>> result("CC[C@H](C)[C@@H]1NC(=O)[C@@H]2CSSC[C@H](NC(=O)[C@H](CCCNC(=N)N)NC(=O)[C@@H]3CSSC[C@H](NC1=O)C(=O)N[C@@H]([C@@H](C)O)C(=O)N[C@@H](CCCNC(=N)N)C(=O)NCC(=O)N[C@@H](Cc1ccccc1)C(=O)N3)C(=O)N[C@@H](CC(C)C)C(=O)N[C@H]1CSSC[C@H](NC(=O)[C@H](C(C)C)NC(=O)CNC(=O)[C@H](CCCNC(=N)N)NC(=O)[C@H](CCCNC(=N)N)NC1=O)C(=O)N[C@@H](CCCNC(=N)N)C(=O)N2")
">3"
>>> result("CC(C)C[C@@H]1NC(=O)[C@@H]2CSSC[C@H](NC(=O)[C@H](CCCNC(=N)N)NC(=O)[C@@H]3CSSC[C@H](NC1=O)C(=O)N[C@@H](CCCNC(=N)N)C(=O)N[C@@H](CCCNC(=N)N)C(=O)NCC(=O)N[C@@H](C(C)C)C(=O)N3)C(=O)N[C@@H](CC(C)C)C(=O)N[C@H]1CSSC[C@H](NC(=O)[C@H](C(C)C)NC(=O)CNC(=O)[C@H](CCCNC(=N)N)NC(=O)[C@H](CCCNC(=N)N)NC1=O)C(=O)N[C@@H](CCCNC(=N)N)C(=O)N2 (cyclo(CLCRRGVCRCLCRRGVCR); disulfide 1-10, 3-8, 12-17)")
">3"
>>> result("CC[C@H](C)[C@@H]1NC(=O)C2CSSCC(NC(=O)[C@H](CCCNC(=N)N)NC(=O)[C@@H]3CSSC[C@H](NC1=O)C(=O)N[C@@H]([C@@H](C)O)C(=O)N[C@@H](CCCNC(=N)N)C(=O)NCC(=O)N[C@@H](Cc1ccccc1)C(=O)N3)C(=O)N[C@@H]([C@@H](C)CC)C(=O)N[C@H]1CSSC[C@H](NC(=O)[C@H](Cc3ccccc3)NC(=O)CNC(=O)[C@H](CCCNC(=N)N)NC(=O)[C@H]([C@@H](C)O)NC1=O)C(=O)N[C@@H](CCCNC(=N)N)C(=O)N2 (single isomer, unassigned)")
">3"

###

Measured MMC, listed per entry for reference.
test system: Staphylococcus aureus; assay: Microbicidal activity against Staphylococcus aureus 502a; assay type: functional
Where a SMILES comes first, the peptide text is derived from it. Bridges are numbered along the chain shown (N, C = ends).
result_type: MMC (µg/mL)

>>> result_number("CC[C@H](C)[C@@H]1NC(=O)[C@@H]2CSSC[C@H](NC(=O)[C@H](CCCNC(=N)N)NC(=O)[C@@H]3CSSC[C@H](NC1=O)C(=O)N[C@@H]([C@@H](C)O)C(=O)N[C@@H](CCCNC(=N)N)C(=O)NCC(=O)N[C@@H](Cc1ccccc1)C(=O)N3)C(=O)N[C@@H](CC(C)C)C(=O)N[C@H]1CSSC[C@H](NC(=O)[C@H](C(C)C)NC(=O)CNC(=O)[C@H](CCCNC(=N)N)NC(=O)[C@H](CCCNC(=N)N)NC1=O)C(=O)N[C@@H](CCCNC(=N)N)C(=O)N2")
1
>>> result_number("CC(C)C[C@@H]1NC(=O)[C@@H]2CSSC[C@H](NC(=O)[C@H](CCCNC(=N)N)NC(=O)[C@@H]3CSSC[C@H](NC1=O)C(=O)N[C@@H](CCCNC(=N)N)C(=O)N[C@@H](CCCNC(=N)N)C(=O)NCC(=O)N[C@@H](C(C)C)C(=O)N3)C(=O)N[C@@H](CC(C)C)C(=O)N[C@H]1CSSC[C@H](NC(=O)[C@H](C(C)C)NC(=O)CNC(=O)[C@H](CCCNC(=N)N)NC(=O)[C@H](CCCNC(=N)N)NC1=O)C(=O)N[C@@H](CCCNC(=N)N)C(=O)N2 (cyclo(CLCRRGVCRCLCRRGVCR); disulfide 1-10, 3-8, 12-17)")
1
>>> result_number("CC[C@H](C)[C@@H]1NC(=O)C2CSSCC(NC(=O)[C@H](CCCNC(=N)N)NC(=O)[C@@H]3CSSC[C@H](NC1=O)C(=O)N[C@@H]([C@@H](C)O)C(=O)N[C@@H](CCCNC(=N)N)C(=O)NCC(=O)N[C@@H](Cc1ccccc1)C(=O)N3)C(=O)N[C@@H]([C@@H](C)CC)C(=O)N[C@H]1CSSC[C@H](NC(=O)[C@H](Cc3ccccc3)NC(=O)CNC(=O)[C@H](CCCNC(=N)N)NC(=O)[C@H]([C@@H](C)O)NC1=O)C(=O)N[C@@H](CCCNC(=N)N)C(=O)N2 (single isomer, unassigned)")
1.5

###

tested on: Staphylococcus aureus; experiment: Microbicidal activity against Staphylococcus aureus 502a using 10 mM PIPES buffer in presence of 154 mM NaCl; format: functional, organism-based
The source made the active and inactive calls. The calls are words filed in the database; no cut-off is given here. Where a SMILES comes first, the peptide text is derived from it. Bridges are numbered along the chain shown (N, C = ends).
Outcome codes: active, inactive

>>> group("CC(C)C[C@H](NC(=O)[C@H](CCCNC(=N)N)NC(=O)CNC(=O)CNC(=O)[C@@H](N)CCCNC(=N)N)C(=O)N[C@H]1CSSC[C@@H](C(=O)N[C@H](C(=O)NCC(=O)N[C@@H](CCCNC(=N)N)C(N)=O)C(C)C)NC(=O)[C@H](C(C)C)NC(=O)[C@@H]2CSSC[C@H](NC(=O)[C@H](Cc3ccc(O)cc3)NC1=O)C(=O)N[C@@H](CCCNC(=N)N)C(=O)N[C@@H](CCCNC(=N)N)C(=O)N[C@@H](CCCNC(=N)N)C(=O)N[C@@H](Cc1ccccc1)C(=O)N2")
"active"
>>> group("CC[C@H](C)[C@@H]1NC(=O)C2CSSCC(NC(=O)[C@H](CCCNC(=N)N)NC(=O)[C@@H]3CSSC[C@H](NC1=O)C(=O)N[C@@H]([C@@H](C)O)C(=O)N[C@@H](CCCNC(=N)N)C(=O)NCC(=O)N[C@@H](Cc1ccccc1)C(=O)N3)C(=O)N[C@@H]([C@@H](C)CC)C(=O)N[C@H]1CSSC[C@H](NC(=O)[C@H](Cc3ccccc3)NC(=O)CNC(=O)[C@H](CCCNC(=N)N)NC(=O)[C@H]([C@@H](C)O)NC1=O)C(=O)N[C@@H](CCCNC(=N)N)C(=O)N2 (single isomer, unassigned)")
"inactive"
>>> group("CC(C)C[C@@H]1NC(=O)[C@@H]2CSSC[C@H](NC(=O)[C@H](CCCNC(=N)N)NC(=O)[C@@H]3CSSC[C@H](NC1=O)C(=O)N[C@@H](CCCNC(=N)N)C(=O)N[C@@H](CCCNC(=N)N)C(=O)NCC(=O)N[C@@H](C(C)C)C(=O)N3)C(=O)N[C@@H](CC(C)C)C(=O)N[C@H]1CSSC[C@H](NC(=O)[C@H](C(C)C)NC(=O)CNC(=O)[C@H](CCCNC(=N)N)NC(=O)[C@H](CCCNC(=N)N)NC1=O)C(=O)N[C@@H](CCCNC(=N)N)C(=O)N2 (cyclo(CLCRRGVCRCLCRRGVCR); disulfide 1-10, 3-8, 12-17)")
"active"
>>> group("CC[C@H](C)[C@@H]1NC(=O)[C@@H]2CSSC[C@H](NC(=O)[C@H](CCCNC(=N)N)NC(=O)[C@@H]3CSSC[C@H](NC1=O)C(=O)N[C@@H]([C@H](C)O)C(=O)N[C@@H](CCCNC(=N)N)C(=O)NCC(=O)N[C@H](Cc1ccccc1)C(=O)N3)C(=O)N[C@@H](CC(C)C)C(=O)N[C@@H]1CSSC[C@@H](NC(=O)[C@H](C(C)C)NC(=O)CNC(=O)[C@H](CCCNC(=N)N)NC(=O)[C@H](CCCNC(=N)N)NC1=O)C(=O)N[C@@H](CCCNC(=N)N)C(=O)N2")
"active"
